measure-name: melting point

## Task Value lookup for melting point; key = CNC(=O)c1cc(-c2ccccc2)c2c(n1)OCCN(Cc1cc(C(F)(F)F)cc(C(F)(F)F)c1)C2=O
## Result 145 °C (dec.)

## Task Value lookup for melting point; key = Cc1ccc(-c2c3n(c(=O)c4ncccc24)C[C@H](C)CN(Cc2cc(C(F)(F)F)cc(C(F)(F)F)c2)C3=O)cc1
## Result 179 to 180 °C

## Task Value lookup for melting point; key = CC1CCn2c(c(-c3ccccc3)c3cccnc3c2=O)C(=O)N(Cc2cc(C(F)(F)F)cc(C(F)(F)F)c2)C1 (racemic)
## Result 257 to 258 °C

## Task Value lookup for melting point; key = C[C@H]1COc2nccc(-c3ccccc3)c2C(=O)N(Cc2cc(C(F)(F)F)cc(C(F)(F)F)c2)C1
## Result 142 to 143 °C

## Task Value lookup for melting point; key = COc1ccc(CN2CCOc3nccc(-c4ccccc4)c3C2=O)cc1OC
## Result 175 to 176 °C

## Task Value lookup for melting point; key = CCN1CCN(Cc2cc(C(F)(F)F)cc(C(F)(F)F)c2)C(=O)c2c(ncc(C)c2-c2ccccc2)C1=O
## Result 228 to 229 °C

## Task Value lookup for melting point; key = Cc1ccc(-c2ccnc3c2C(=O)N(Cc2ccccc2)C[C@H](C)CO3)cc1
## Result 148 to 149 °C

## Task Value lookup for melting point; key = O=C1c2c(-c3ccccc3)cc(CCl)nc2OCCN1Cc1cc(C(F)(F)F)cc(C(F)(F)F)c1
## Result 183 to 184 °C

## Task Value lookup for melting point; key = Cc1ccc(-c2c3n(c(=O)c4ncccc24)CC[C@H](C)CN(Cc2cc(C(F)(F)F)cc(C(F)(F)F)c2)C3=O)cc1
## Result 227 to 228 °C

## Task Value lookup for melting point; key = Cc1ccc(-c2c3n(c(=O)c4ncccc24)CC[C@@H](C)CN(Cc2cc(C(F)(F)F)cc(C(F)(F)F)c2)C3=O)cc1
## Result 226 to 228 °C

====

Quick reference: melting point of the listed items.

Below are worked cases with known answers.
smiles-entry	melting point
C[C@H]1CCn2c(c(-c3ccccc3)c3cccnc3c2=O)C(=O)N(Cc2cc(C(F)(F)F)cc(C(F)(F)F)c2)C1	242 to 244 °C
CC(=O)OCc1cc(-c2ccccc2)c2c(n1)OCCN(Cc1cc(C(F)(F)F)cc(C(F)(F)F)c1)C2=O	122 to 124 °C
Cc1ccc(-c2ccnc3c2C(=O)N(Cc2ccccc2)CCO3)cc1	203 to 204 °C

## Task Value lookup for melting point; key = O=C1c2c(-c3ccccc3)ccnc2OCCN1Cc1cc(C(F)(F)F)cc(C(F)(F)F)c1
## Result 200 to 201 °C

## Task Value lookup for melting point; key = C[C@H]1COc2nccc(-c3ccccc3)c2C(=O)N(Cc2ccccc2)C1
## Result 139 to 140 °C

## Task Value lookup for melting point; key = Cc1cnc2c(c1-c1ccccc1)C(=O)N(Cc1ccccc1)CCN(C)C2=O
## Result 183 to 184 °C

====

Quick reference: melting point of the listed items.

smiles-entry	measure-name	value-reported
O=C1c2c(-c3ccccc3)ccnc2NCCN1Cc1cc(C(F)(F)F)cc(C(F)(F)F)c1	melting point	242 to 243 °C

## Task Value lookup for melting point; key = CSCc1cc(-c2ccccc2)c2c(n1)OCCN(Cc1cc(C(F)(F)F)cc(C(F)(F)F)c1)C2=O
## Result 165 to 166 °C

## Task Value lookup for melting point; key = Cc1cc(-c2ccccc2)c2c([n+]1[O-])OCCN(Cc1cc(C(F)(F)F)cc(C(F)(F)F)c1)C2=O
## Result 181 to 183 °C

## Task Value lookup for melting point; key = C[C@@H]1COc2nccc(-c3ccccc3)c2C(=O)N(Cc2ccccc2)C1
## Result 139 to 141 °C

====

Quick reference: melting point of the listed items.

molecule	value-reported
CC(=O)OCc1cc(-c2ccccc2)c2c(n1)OCCCN(Cc1cc(C(F)(F)F)cc(C(F)(F)F)c1)C2=O [Example 38]	156 to 157 °C
Cc1ccc(-c2ccnc3c2C(=O)N(Cc2cc(C(F)(F)F)cc(C(F)(F)F)c2)C[C@H](C)CO3)cc1 [Example 82]	159 to 160 °C
NCc1cc(-c2ccccc2)c2c(n1)OCCN(Cc1cc(C(F)(F)F)cc(C(F)(F)F)c1)C2=O [Example 43]	188 to 191 °C

Switching to the query record.
## Task Value lookup for melting point; key = C[C@@H]1COc2nccc(-c3ccccc3)c2C(=O)N(Cc2cc(C(F)(F)F)cc(C(F)(F)F)c2)C1 [Example 71]
## Result 142 to 143 °C

====

measure-name: melting point

Below are worked cases with known answers.
smiles-entry	melting point
Cc1cnc2c(c1-c1ccccc1)C(=O)N(Cc1cc(C(F)(F)F)cc(C(F)(F)F)c1)C[C@@H](C)CO2	147 to 149 °C
CNCc1cc(-c2ccccc2)c2c(n1)OCCN(Cc1cc(C(F)(F)F)cc(C(F)(F)F)c1)C2=O	152 to 154 °C
Cc1ccc(-c2c3n(c(=O)c4ncccc24)C[C@@H](C)CN(Cc2cc(C(F)(F)F)cc(C(F)(F)F)c2)C3=O)cc1	179 to 180 °C
CCCCNC(=O)c1cc(-c2ccccc2)c2c(n1)OCCN(Cc1cc(C(F)(F)F)cc(C(F)(F)F)c1)C2=O	194 to 196 °C

## Task Value lookup for melting point; key = C[C@H]1CN(Cc2cc(C(F)(F)F)cc(C(F)(F)F)c2)C(=O)c2c(-c3ccccc3)c3cccnc3c(=O)n2C1
## Result 150 to 152 °C

====

measure-name: melting point

Below are worked cases with known answers.
compound	melting point
O=C1c2c(-c3ccccc3)ccnc2OCCCN1Cc1cc(C(F)(F)F)cc(C(F)(F)F)c1 [Example 22]	188 to 189 °C
CS(=O)(=O)NCc1cc(-c2ccccc2)c2c(n1)OCCN(Cc1cc(C(F)(F)F)cc(C(F)(F)F)c1)C2=O [Example 49]	194 to 195 °C
COc1cc(CN2CCOc3nccc(-c4ccccc4)c3C2=O)cc(OC)c1OC [Example 64]	177 to 179 °C

## Task Value lookup for melting point; key = CN1CCN(Cc2cc(C(F)(F)F)cc(C(F)(F)F)c2)C(=O)c2c(-c3ccccc3)ccnc2C1=O [Example 51]
## Result 167 to 169 °C

## Task Value lookup for melting point; key = CC(=O)NCc1cc(-c2ccccc2)c2c(n1)OCCN(Cc1cc(C(F)(F)F)cc(C(F)(F)F)c1)C2=O [Example 48]
## Result 223 to 224 °C

====

Quick reference: melting point of the listed items.

Below are worked cases with known answers.
smiles-entry	melting point
O=C1c2c(-c3ccccc3)ccnc2OCCN1Cc1ccccc1	209 to 211 °C
Cc1cc(-c2ccccc2)c2c(n1)OCCCN(Cc1cc(C(F)(F)F)cc(C(F)(F)F)c1)C2=O	164 to 165 °C

## Task Value lookup for melting point; key = Cc1ccc(-c2c3n(c(=O)c4ncccc24)CCCN(Cc2cc(C(F)(F)F)cc(C(F)(F)F)c2)C3=O)cc1
## Result 194 to 195 °C
